System: tat-dependent promoter activity of viral LTR carrying the TAR sequence
Assay: trans-activation CAT assay, test plasmids transfected into HeLa/C63/tat cells
Type: cell-based, HeLa/C63/tat (clone 9) cells

Substance: G28 to C28: TAR point mutation expected to disrupt the top of the TAR stem/loop structure (GGGUCUCUCUGGUUAGACCAGAUUUGACCCUGGGAGCUCUCUGGCUAACUAGGGAACCC; chemistry not given here)
CAT expression: null phenotypes
--
Substance: delta U (bulge): TAR RNA in which residues 23-25 are deleted (GGGUCUCUCUGGUUAGACCAGAGAGCCUGGGAGCUCUCUGGCUAACUAGGGAACCC; RNA, backbone not given here)
CAT expression: null phenotypes
